Experiment: Biodistribution of radiotracers in normal mice
Assay type: in vivo, mouse
Details: normal male mice, 2 min
The following compounds are shown together with reported Biodistribution: Spleen values.
parameter: Biodistribution: Spleen (% dose/g)

| compound | numericResult |
| --- | --- |
| C[C@H](NC(=O)CCc1ccc2c(c1)C[N+]13CC[N+]45CC(=O)[O][68Ga-3]41([O]C(=O)C3)([O]c1ccc(CCC(=O)NCCCCCC(=O)NCCCC[C@H](NC(=O)N[C@@H](CCC(=O)O)C(=O)O)C(=O)O)cc1C5)[O]2)C(=O)O (stereo partly shown) [[^68Ga]1d] | 3.40 |
| O=C(O)CC[C@H](NC(=O)CCc1ccc2c(c1)C[N+]13CC[N+]45CC(=O)[O][68Ga-3]41([O]C(=O)C3)([O]c1ccc(CCC(=O)NCCCCCC(=O)NCCCC[C@H](NC(=O)N[C@@H](CCC(=O)O)C(=O)O)C(=O)O)cc1C5)[O]2)C(=O)O (stereo partly shown) [[^68Ga]1f] | 3.80 |
| O=C(O)CCc1ccc2c(n1)C[N+]13CC[N+]45CC(=O)[O][68Ga-3]14([O]C(=O)C3)([O]2)[O]c1ccc(CCC(=O)NCCCCCC(=O)NCCCC[C@H](NC(=O)N[C@@H](CCC(=O)O)C(=O)O)C(=O)O)nc1C5 (stereo partly shown) [[^68Ga]2] | 3.57 |
| O=C(O)CCc1ccc2c(c1)C[N+]13CC[N+]45CC(=O)[O][68Ga-3]14([O]C(=O)C3)([O]2)[O]c1ccc(CCC(=O)NCCCCCC(=O)NCCCC[C@H](NC(=O)N[C@@H](CCC(=O)O)C(=O)O)C(=O)O)cc1C5 (stereo partly shown) [[^68Ga]1a, reference compound] | 7.46 |
| O=C(O)CC[C@H](NC(=O)N[C@@H](CCCCNC(=O)CCCCCNC(=O)CCc1ccc2c(n1)C[N+]13CC[N+]45CC(=O)[O][68Ga-3]14([O]C(=O)C3)([O]2)[O]c1ccc(CCC(=O)NCCCCCC(=O)NCCCC[C@H](NC(=O)N[C@@H](CCC(=O)O)C(=O)O)C(=O)O)nc1C5)C(=O)O)C(=O)O (stereo partly shown) [[^68Ga]3] | 5.14 |
| O=C(O)CCc1ccc(O)c(CN(CCN(CC(=O)O)Cc2cc(CCC(=O)NCCCCCC(=O)NCCCC[C@H](NC(=O)N[C@@H](CCC(=O)O)C(=O)O)C(=O)O)ccc2O)CC(=O)O)n1 [[^68Ga]4a, metal not drawn] | 3.64 |
| O=C(O)CC[C@H](NC(=O)N[C@@H](CCCCNC(=O)CCCCCNC(=O)CCc1ccc2c(c1)C[N+]13CC[N+]45CC(=O)[O][68Ga-3]14([O]C(=O)C3)([O]2)[O]c1ccc(CCC(=O)NCC(=O)O)cc1C5)C(=O)O)C(=O)O (stereo partly shown) [[^68Ga]1c] | 3.58 |
| O=C(O)CC[C@H](NC(=O)N[C@@H](CCCCNC(=O)CCCCCNC(=O)CCc1ccc2c(c1)C[N+]13CC[N+]45CC(=O)[O][68Ga-3]14([O]C(=O)C3)([O]2)[O]c1ccc(CCC(=O)NCCNC(=O)CN2CCN(CC(=O)O)CCN(CC(=O)O)CCN(CC(=O)O)CC2)cc1C5)C(=O)O)C(=O)O (stereo partly shown) [[^68Ga]1g] | 5.06 |
| O=C(O)CC[C@H](NC(=O)N[C@@H](CCCCNC(=O)CCCCCNC(=O)CCc1ccc2c(c1)C[N+]13CC[N+]45CC(=O)[O][68Ga-3]14([O]C(=O)C3)([O]2)[O]c1ccc(CCC(=O)N[C@@H](CC(=O)O)C(=O)O)cc1C5)C(=O)O)C(=O)O (stereo partly shown) [[^68Ga]1e] | 3.69 |
| O=C(O)CCc1ccc2c(c1)C[N+]13CC[N+]45CC(=O)[O][68Ga-3]14([O]C(=O)C3)([O]2)[O]c1ccc(CCC(=O)NCC(=O)N[C@@H](Cc2ccc(OCC(=O)N[C@@H](Cc3ccccc3)C(=O)NCCCC[C@H](NC(=O)N[C@@H](CCC(=O)O)C(=O)O)C(=O)O)cc2)C(=O)O)cc1C5 (stereo partly shown) [[^68Ga]5b] | 3.86 |

Provenance of the data: patent US10688200B2
